Molecular target: NMDA receptor (GRIN1/GRIN2A subunits) (Homo sapiens, UniProt Q05586+Q12879)
Construct: expressed in transfected cells; host or cells: HEK 293 cells, stably transfected with GRIN1 and transiently transfected with GRIN2A and CD8
Sequence (Q12879 23-1464, other chains not shown): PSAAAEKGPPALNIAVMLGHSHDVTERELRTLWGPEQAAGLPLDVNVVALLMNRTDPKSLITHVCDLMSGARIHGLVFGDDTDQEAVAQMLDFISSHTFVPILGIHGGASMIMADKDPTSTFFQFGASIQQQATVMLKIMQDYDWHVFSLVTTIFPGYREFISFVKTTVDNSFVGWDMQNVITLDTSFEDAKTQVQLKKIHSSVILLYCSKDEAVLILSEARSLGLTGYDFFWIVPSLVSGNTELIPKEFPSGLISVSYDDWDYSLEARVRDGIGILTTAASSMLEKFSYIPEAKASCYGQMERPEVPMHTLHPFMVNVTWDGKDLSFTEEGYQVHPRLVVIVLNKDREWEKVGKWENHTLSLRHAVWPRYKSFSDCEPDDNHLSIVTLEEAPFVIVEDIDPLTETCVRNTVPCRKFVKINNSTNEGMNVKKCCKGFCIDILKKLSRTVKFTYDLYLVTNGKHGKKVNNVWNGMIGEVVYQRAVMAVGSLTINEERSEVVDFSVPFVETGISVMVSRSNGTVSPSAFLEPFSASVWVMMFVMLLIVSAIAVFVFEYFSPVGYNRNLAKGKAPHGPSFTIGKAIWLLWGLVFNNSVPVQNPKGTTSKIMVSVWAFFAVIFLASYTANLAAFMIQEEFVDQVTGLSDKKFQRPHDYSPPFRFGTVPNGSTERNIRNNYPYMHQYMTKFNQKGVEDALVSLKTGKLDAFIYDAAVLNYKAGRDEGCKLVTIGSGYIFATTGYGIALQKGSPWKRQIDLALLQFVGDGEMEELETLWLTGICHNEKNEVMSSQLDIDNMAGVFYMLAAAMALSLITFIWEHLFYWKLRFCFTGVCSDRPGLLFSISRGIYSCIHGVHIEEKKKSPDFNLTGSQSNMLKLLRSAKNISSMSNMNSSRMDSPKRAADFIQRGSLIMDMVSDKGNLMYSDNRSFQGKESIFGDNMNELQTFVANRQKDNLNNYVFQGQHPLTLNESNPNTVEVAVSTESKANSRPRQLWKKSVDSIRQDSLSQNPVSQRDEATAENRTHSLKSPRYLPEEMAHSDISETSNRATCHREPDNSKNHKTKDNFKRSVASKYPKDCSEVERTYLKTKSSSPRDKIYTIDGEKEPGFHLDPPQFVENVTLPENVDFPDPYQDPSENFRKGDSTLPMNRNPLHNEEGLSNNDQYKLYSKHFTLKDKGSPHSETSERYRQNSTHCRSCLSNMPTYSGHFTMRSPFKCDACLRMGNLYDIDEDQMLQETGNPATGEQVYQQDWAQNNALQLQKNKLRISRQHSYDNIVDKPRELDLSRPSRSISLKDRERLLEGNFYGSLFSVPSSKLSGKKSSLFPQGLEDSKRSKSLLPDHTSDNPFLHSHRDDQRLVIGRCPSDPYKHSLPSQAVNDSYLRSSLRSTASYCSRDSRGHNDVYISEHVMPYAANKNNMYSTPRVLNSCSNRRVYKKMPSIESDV
Assay: NMDA potentiation, whole-cell patch-clamp in HEK cells
Type: cell-based
Conditions: HEK293, compound 1 uM, currents evoked by 30 μM NMDA and 5.0 μM Glycine, holding potential −80 mV, read-out: NMDA 1a2A (%) Potentiation 1 uM
Readout Label: activation at 1 µM (%)
Numbers only here, please. The scale is %.

Entry COC[C@]1(O)CC[C@@]2(C)[C@@H](CC[C@@H]3[C@@H]2CC[C@]2(C)[C@@H]([C@H](C)CCC(C)(C)O)CC[C@@H]32)C1 — recorded activation at 1 µM = 110

Entry COC[C@@]1(O)CC[C@@]2(C)[C@@H](CC[C@@H]3[C@@H]2CC[C@]2(C)[C@@H]([C@H](C)CCC(C)(C)O)CC[C@@H]32)C1 — recorded activation at 1 µM = 25

Entry C[C@H](CCCO)[C@H]1CC[C@H]2[C@@H]3CC=C4C[C@@H](O)CC[C@]4(C)[C@H]3CC[C@]12C — recorded activation at 1 µM = 127

Entry C[C@H](CC(F)(F)CO)[C@H]1CC[C@H]2[C@@H]3CC=C4C[C@@H](O)CC[C@]4(C)[C@H]3CC[C@]12C — recorded activation at 1 µM = 95

Entry C[C@H](CCC(C)(C)O)[C@H]1CC[C@H]2[C@@H]3CC[C@H]4C[C@@](C)(O)CC[C@@H]4[C@H]3CC[C@]12C — recorded activation at 1 µM = 114

Entry C[C@H](CCC(C)(C)O)[C@H]1CC[C@H]2[C@@H]3CC[C@@H]4C[C@@](O)(C(F)(F)F)CC[C@]4(C)[C@H]3CC[C@]12C — recorded activation at 1 µM = 18

Entry C[C@H](CCC(C)(C)O)[C@H]1CC[C@H]2[C@@H]3CC[C@H]4C[C@](O)(C(F)(F)F)CC[C@@H]4[C@H]3CC[C@]12C — recorded activation at 1 µM = 85

Entry CC(CCC(C)(C)O)[C@H]1CC[C@H]2[C@@H]3CC=C4C[C@@H](O)CC[C@]4(C)[C@H]3CC[C@]12C (stereo partly shown) — recorded activation at 1 µM = 197

Entry CC[C@@]1(O)CC[C@@]2(C)C(=CC[C@H]3[C@@H]4CC[C@H]([C@H](C)CCC(C)(C)O)[C@@]4(C)CC[C@@H]32)C1 — recorded activation at 1 µM = 139

Entry CC(C)[C@H](O)CC[C@@H](C)[C@H]1CC[C@H]2[C@@H]3CC=C4C[C@@H](O)CC[C@]4(C)[C@H]3CC[C@]12C — recorded activation at 1 µM = 137

Entry CC(C)(O)CCC[C@H]1CCC2C3CC[C@H]4C[C@@](C)(O)CC[C@]4(C)C3CC[C@@]21C (stereo partly shown) — recorded activation at 1 µM = 105

Entry CC[C@]1(O)CC[C@@]2(C)C(=CC[C@H]3[C@@H]4CC[C@H]([C@H](C)CCC(C)(C)O)[C@@]4(C)CC[C@@H]32)C1 — recorded activation at 1 µM = 286

Entry C[C@H](CCC(C)(C)O)[C@H]1CC[C@H]2[C@@H]3CC=C4C[C@@](C)(O)CC[C@]4(C)[C@H]3CC[C@]12C — recorded activation at 1 µM = 348

Entry C[C@H](CCC(C)(C)O)[C@H]1CC[C@H]2[C@@H]3CC[C@H]4C[C@@H](O)CC[C@]4(C)[C@H]3CC[C@]12C — recorded activation at 1 µM = 85

Entry C[C@H](CCC1(O)CC1)[C@H]1CC[C@H]2[C@@H]3CC=C4C[C@@H](O)CC[C@]4(C)[C@H]3CC[C@]12C — recorded activation at 1 µM = 171

Entry C[C@@H]([C@H]1CC[C@H]2[C@@H]3CC=C4C[C@@H](O)CC[C@]4(C)[C@H]3CC[C@]12C)C(C)(C)O — recorded activation at 1 µM = 24

Entry C[C@H](CCC(C)(C)O)[C@H]1CC[C@H]2[C@@H]3CC[C@H]4C[C@](O)(C(F)(F)F)CC[C@]4(C)[C@H]3CC[C@]12C — recorded activation at 1 µM = 172

Entry C[C@H](CCC(C)(C)O)[C@H]1CC[C@H]2[C@@H]3CC=C4C[C@@H](O)CC[C@@H]4[C@H]3CC[C@]12C — recorded activation at 1 µM = 66

Entry C[C@H](CCC(C)(C)O)[C@H]1CC[C@H]2[C@@H]3CC[C@H]4C[C@](C)(O)CC[C@]4(C)[C@H]3CC[C@]12C — recorded activation at 1 µM = 30

Entry CC(C)(O)CCO[C@H]1CCC2C3CC[C@H]4C[C@@](C)(O)CC[C@]4(C)C3CC[C@@]21C (stereo partly shown) — recorded activation at 1 µM = 27

Entry C[C@H](CCC(C)(C)N)[C@H]1CC[C@H]2[C@@H]3CC=C4C[C@@H](O)CC[C@]4(C)[C@H]3CC[C@]12C — recorded activation at 1 µM = -19

Entry C[C@H](CCC(C)(C)O)[C@H]1CC[C@H]2[C@@H]3CC[C@H]4C[C@](C)(O)CC[C@@H]4[C@H]3CC[C@]12C — recorded activation at 1 µM = 52

Entry C[C@H](CC(C)(C)O)[C@H]1CC[C@H]2[C@@H]3CC=C4C[C@@H](O)CC[C@]4(C)[C@H]3CC[C@]12C — recorded activation at 1 µM = 27

Entry CC(C)(O)COC[C@H]1CCC2C3CC=C4C[C@@](C)(O)CC[C@]4(C)C3CC[C@@]21C (stereo partly shown) — recorded activation at 1 µM = -14

Entry CC(O)CC[C@@H](C)[C@H]1CC[C@H]2[C@@H]3CC=C4C[C@@H](O)CC[C@]4(C)[C@H]3CC[C@]12C (stereo partly shown) — recorded activation at 1 µM = 98
